Test system: anti-desmoglein-3 scFv antibody binding to human DSG3
experiment notes: inhibitors of anti-DSG3 scFv binding to DSG3, pilot screen, biochemical, validation compound set, bead-based, flow cytometry (AID 588368);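 also: signal is the median channel fluorescence of bead-bound GFP antibody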
condition description: Protein G beads, DSG3-Fc, scFv-GFP binding, at 10 µM, stronger effect = lower value
Activity calls are given as the source filed them.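 The calls were made as follows: active = binding below the plate cutoff, the plate median minus 3 SD, with a reading above zero; inconclusive = below the plate cutoff but reading exactly zero; inactive = the rest.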
Reported binding (% of control) is given for each of the following compounds.

compound	observed measurement
N#Cc1c2c(c(-c3ccccc3)[nH]c1=O)CCCC2	98.8% (inactive)

Ask: Answer with the recorded binding (% of control) of Oc1[nH]c2ccccc2c1N=Nc1ccccc1 only.
Result: 103% (inactive)

Ask: Answer with the recorded binding (% of control) of COc1ccc2cc(CCC(C)=O)ccc2c1 only.
Result: 108% (inactive)

Ask: Answer with the recorded binding (% of control) of COc1ccc(NC(=O)C2C(=O)N(CCO)C3(C)CC2c2ccccc2O3)cc1 (centres undefined) only.
Result: 107% (inactive)

###

experiment notes: modulators of MEP2-GFP levels in yeast, confirmation, S. cerevisiae, flow cytometry GFP, cherry picks (AID 2272);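 also: ratio of well signal to plate DMSO mean so 100% equals DMSO level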
condition description: S. cerevisiae MEP2-GFP strain, 3 h, at 10 µM
Active and inactive are the calls of the source.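 Rule for the calls: active = GFP response above 150% of the DMSO control; inconclusive = Fewer than 70 cells counted for a yeast strain; inactive = the rest.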
One label from this list, please: active, inactive

compound	cat
O=C1c2ccsc2SCCN1Cc1ccc(F)cc1	inactive

Ask: Returns: the outcome recorded for [O-][n+]1cccc2c(Br)cc(Br)c(O)c21 in this assay.
Result: active

Ask: Returns: the outcome recorded for O=C(Nc1ccc(NC(=O)c2cc3ccccc3o2)cc1)c1ccc2c(c1)OCCO2 in this assay.
Result: inactive

###

experiment notes: modulators of MEP2-GFP levels in yeast, confirmation, S. cerevisiae, flow cytometry GFP, cherry picks (AID 2272);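 also: ratio of well signal to plate DMSO mean so 100% equals DMSO level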
condition description: S. cerevisiae MEP2-GFP strain, 3 h, at 10 µM, stronger effect = higher value
property: GFP response vs DMSO (%)
Numbers only; they are read as %.

Examples from the recorded data:
compound	GFP response vs DMSO / %
O=C(N/N=C\c1ccc(F)cc1)c1cc(OCC(F)(F)F)ccc1OCC(F)(F)F	102
Cc1ccc(N2C(=O)c3ccccc3NC2c2ccccc2O)cc1 (stereo unspecified)	109
Cc1ccc2nc(/C(C#N)=C/c3ccc(O)c(O)c3)[nH]c2c1	230
C[n+]1ccc(/C=C/c2c[nH]c3ccc(F)cc23)cc1	120
Cc1ccn2c(NC(=O)c3ccco3)c(-c3ccccc3)nc2c1	107

Ask: Answer with the recorded GFP response vs DMSO of COc1ccc(C(=O)NC(=S)NNC(=O)CCc2ccccc2)cc1 only.
Result: 116

###

Reported GFP response vs DMSO is given for each of the following molecules.
experiment notes: RPL19A-GFP modulators, yeast TOR pathway, confirmation, cell-based, S. cerevisiae, flow cytometry, cherry picks, mother/daughter gates (AID 2270)
condition description: S. cerevisiae RPL19A-GFP strain, 3 h, at 10 µM, stronger effect = lower value, 100 = same GFP as DMSO wells
Numbers only; they are read as %.

Examples from the recorded data:
molecule	property	result units	observed measurement
Cc1nc2c(-c3ccc(F)cc3)c(C)nn2c(N2CCOCC2)c1C	GFP response vs DMSO	%	100
COC(=O)c1cc(NC(=O)c2c(Cl)nc3sccn23)cc(C(=O)OC)c1	GFP response vs DMSO	%	97
COc1ccc([N+](=O)[O-])c(S(=O)(=O)c2ccc(Cl)cc2)n1	GFP response vs DMSO	%	84.5
CCOc1c(Br)ccc2c1sc1nc[nH]c(=O)c12	GFP response vs DMSO	%	101

Ask: Answer with the recorded GFP response vs DMSO of COCCNc1c(-c2ccc(O)cc2)nc2ccc(Cl)cn12 only.
Result: 97.6

Ask: Answer with the recorded GFP response vs DMSO of C[C@@H](C(=O)Nc1nc2ccc(F)cc2s1)N1C(=O)C2CC=CCC2C1=O (stereo partly specified) only.
Result: 98.7
